Values from ChEMBL document CHEMBL3988442

Quick list: Percent Effect per entry.
# assay-target: Chromo domain-containing protein 1 (Saccharomyces cerevisiae (strain ATCC 204508 / S288c) (Baker's yeast)) (UniProt P32657)
# Sequence (P32657 whole entry, the tested form may be a part): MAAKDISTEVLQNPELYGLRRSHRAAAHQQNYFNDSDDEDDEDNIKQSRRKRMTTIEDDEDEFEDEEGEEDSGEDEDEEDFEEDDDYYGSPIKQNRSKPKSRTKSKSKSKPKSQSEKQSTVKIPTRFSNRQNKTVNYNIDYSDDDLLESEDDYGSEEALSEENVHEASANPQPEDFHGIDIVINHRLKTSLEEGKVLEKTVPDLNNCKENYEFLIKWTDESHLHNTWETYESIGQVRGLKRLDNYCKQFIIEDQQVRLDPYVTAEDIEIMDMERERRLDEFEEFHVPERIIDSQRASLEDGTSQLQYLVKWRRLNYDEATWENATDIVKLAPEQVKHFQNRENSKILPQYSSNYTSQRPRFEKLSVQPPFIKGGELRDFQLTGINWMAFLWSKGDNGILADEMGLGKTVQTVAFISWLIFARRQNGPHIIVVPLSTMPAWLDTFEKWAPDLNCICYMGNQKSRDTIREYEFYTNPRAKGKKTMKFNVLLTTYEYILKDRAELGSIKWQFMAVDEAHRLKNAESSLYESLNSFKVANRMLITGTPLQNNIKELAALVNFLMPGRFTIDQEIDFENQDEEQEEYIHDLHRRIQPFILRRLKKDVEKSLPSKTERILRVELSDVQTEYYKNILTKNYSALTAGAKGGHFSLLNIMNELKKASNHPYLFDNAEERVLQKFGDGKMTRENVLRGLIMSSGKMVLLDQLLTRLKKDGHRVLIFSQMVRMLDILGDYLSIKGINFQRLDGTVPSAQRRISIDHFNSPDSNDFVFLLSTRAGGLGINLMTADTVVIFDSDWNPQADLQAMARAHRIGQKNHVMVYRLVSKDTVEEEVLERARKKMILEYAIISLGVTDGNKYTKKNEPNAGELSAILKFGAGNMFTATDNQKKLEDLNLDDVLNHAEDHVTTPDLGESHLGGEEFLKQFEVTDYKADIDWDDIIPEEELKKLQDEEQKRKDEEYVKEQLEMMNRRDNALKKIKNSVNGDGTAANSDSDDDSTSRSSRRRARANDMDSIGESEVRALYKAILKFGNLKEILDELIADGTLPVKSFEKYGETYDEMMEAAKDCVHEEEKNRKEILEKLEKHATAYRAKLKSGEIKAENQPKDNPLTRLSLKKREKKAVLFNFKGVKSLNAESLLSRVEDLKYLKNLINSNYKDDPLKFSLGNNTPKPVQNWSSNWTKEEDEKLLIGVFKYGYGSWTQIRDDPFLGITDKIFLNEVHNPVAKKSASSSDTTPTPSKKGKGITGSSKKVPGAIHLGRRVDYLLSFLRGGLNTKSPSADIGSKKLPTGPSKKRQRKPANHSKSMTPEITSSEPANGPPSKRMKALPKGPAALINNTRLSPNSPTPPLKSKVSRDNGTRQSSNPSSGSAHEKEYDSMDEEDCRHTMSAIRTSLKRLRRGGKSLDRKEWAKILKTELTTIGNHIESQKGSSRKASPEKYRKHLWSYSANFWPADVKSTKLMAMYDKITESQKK
# assay-summary: ScCHD-1 Enzyme Inhibition Assay; also: in the data most compounds retested in dose-response had high values
# Assay type: functional
# Parameters: scale not given: direction of the effect not stated beside the values
# condition-summary: 30 µM
Write the value in % as a bare number.

Please review the entries below; each comes with its answer.
Ask | Returns the measured Percent Effect for the input compound. Input: c1ccc(-c2nccc(CNCC3CCCN3c3cccnn3)n2)cc1 (configuration not stated)
Reply | 11.3

Ask | Entry `Cc1nc(N2CCCC2)nc2c1CCN(C(=O)CC1CC1)CC2` has what Percent Effect?
Reply | -11

Ask | Looking for the measured Percent Effect of O=C(NCC1CC1)C1CN(C(=O)c2cccc(Cl)c2)CC12CCOCC2 (configuration not stated) , can you help?
Reply | -9.61

Ask | Query: Percent Effect; subject: `Cc1noc(NC(=O)c2ccc(OC(F)(F)F)cc2)n1`
Reply | -3.4

Ask | Entry Cn1cc2c(n1)C(CNC(=O)Cc1ccsc1)OCC2 (configuration not stated) has what Percent Effect?
Reply | -6.29

Ask | Which value of Percent Effect has been reported for `Clc1ccc(OCCN2CCN(CCn3cncn3)CC2)cc1` in the records?
Reply | -8.8

Ask | Which Percent Effect reading was recorded for the compound `CN(CCOc1cccc(CN)c1)C1CCOCC1` ?
Reply | 13.5

Ask | Look up Percent Effect: Cc1n[nH]c(C)c1C1CCCN1C(=O)CNC(=O)C(C)(C)C (configuration not stated)
Reply | -4.49

Ask | Data request, read-out Percent Effect, for `CNS(=O)(=O)c1cccc(CNc2cc(C(F)(F)F)ccn2)c1`
Reply | -1.45

Ask | What measured Percent Effect goes with `Cc1cccc(NS(=O)(=O)c2cc(C(=O)O)oc2C)c1Cl` ?
Reply | -7.97

Continuing:
Ask | So what does the record say about Percent Effect for `O=C(CN(Cc1ccccc1)CC1CCOCC1)NC(=O)NC1CC1` ?
Reply | 1.29

Ask | I am curious: what Percent Effect value has been reported for c1cnn(CC2CN(c3ncnc4ccsc34)CCO2)c1 (configuration not stated) ?
Reply | 0.323

###

# assay-target: Tyrosyl-tRNA synthetase, putative (Trypanosoma cruzi (strain CL Brener)) (UniProt Q4DSP6)
# Sequence (Q4DSP6 as listed by the source): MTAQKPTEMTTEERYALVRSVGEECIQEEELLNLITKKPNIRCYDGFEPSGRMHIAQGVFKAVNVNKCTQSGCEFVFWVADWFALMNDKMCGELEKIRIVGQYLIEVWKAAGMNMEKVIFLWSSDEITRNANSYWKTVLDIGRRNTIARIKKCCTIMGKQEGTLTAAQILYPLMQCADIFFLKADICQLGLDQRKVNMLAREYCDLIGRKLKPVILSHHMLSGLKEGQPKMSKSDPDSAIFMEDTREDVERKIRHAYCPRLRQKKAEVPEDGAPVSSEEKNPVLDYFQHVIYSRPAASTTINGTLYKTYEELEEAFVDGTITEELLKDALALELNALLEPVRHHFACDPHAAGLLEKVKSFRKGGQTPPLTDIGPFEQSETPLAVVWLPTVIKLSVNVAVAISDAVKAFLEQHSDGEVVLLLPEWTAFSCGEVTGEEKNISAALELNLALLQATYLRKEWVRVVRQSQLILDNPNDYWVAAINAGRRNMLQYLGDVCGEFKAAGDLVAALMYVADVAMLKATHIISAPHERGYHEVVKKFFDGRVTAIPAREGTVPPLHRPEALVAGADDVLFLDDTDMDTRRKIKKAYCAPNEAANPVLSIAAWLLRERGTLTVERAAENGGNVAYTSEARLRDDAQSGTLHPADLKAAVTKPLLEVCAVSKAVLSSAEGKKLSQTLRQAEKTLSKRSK
# assay-summary: Trypanosoma cruzi tyrosyl tRNA synthetase (TcYRS) SOP
# Assay type: functional
# Parameters: scale not given: direction of the effect not stated beside the values
# condition-summary: 30 µM
assay-readout: Percent Effect (%)
Please state the figure in %; there is no need to write the unit.

Ask | Look up Percent Effect: `NC(=O)CCOc1nc(-c2ccccc2Cl)no1`
Reply | 15

Ask | Need Percent Effect of Cc1noc(C(C)C)c1C(=O)NCC(c1cccc(F)c1)N(C)C (stereo unspecified) , thanks.
Reply | -8.86

Ask | What Percent Effect value was documented for this compound, `CN(Cc1ccco1)[C@@H]1CN(C(=O)c2ccnnc2)C[C@@H]2CCCO[C@@H]21` ?
Reply | 8.64

Ask | Consider the compound `CC(C)(C)c1ccn(C2(C(=O)O)CCN(c3nccc(N)n3)CC2)n1` and give its measured Percent Effect.
Reply | -5.13

Ask | Would you kindly share the measured Percent Effect for Cn1ncc2c1C(COCC1CC1)CN(Cc1ccoc1)C2 (stereo unspecified) ?
Reply | 20.5

New cases:
Ask | Requested read-out: Percent Effect. Entry: `O=S1(=O)COCCN1Cc1cccc(Cl)c1`
Reply | 12.2

Ask | Entry `CN(CCCOc1ccc(F)cc1)Cc1nc2c(cnn2C)c(=O)[nH]1` : reported Percent Effect = ?
Reply | 23.5

Ask | Recorded Percent Effect for `Oc1ccc(N2CCN(Cc3cc4c(cc3Br)OCCO4)CC2)cc1` , please?
Reply | 10.3

Ask | Using the record for COc1ccc(Cl)cc1C(=O)N1CCCC(n2nc(C)nc2C)C1 (stereo unspecified) , report its Percent Effect.
Reply | -3.8

Ask | Give its Percent Effect value. Item: CN1C(=O)CC(c2cnn(C)c2)C12CCN(C(=O)C1CC=CC1)CC2 (stereo unspecified)
Reply | -2.56

Ask | What Percent Effect value was documented for this compound, `O=C(NS(=O)(=O)c1cc(Cl)sc1Cl)c1cccc2c1OCCO2` ?
Reply | -42.5
